Test system: PBMCs
Assay: LPS-induced TNFα/IL-8 release in PBMC cells
Assay type: cell-based
Conditions: Homo sapiens, assay (b), read-out: IC50 Values for Inhibition of Cytokine Release PBMCs TNFα
Metric: IC50
Please don't drop the unit; write it after the number.

IN: For the record `COCCOCCOCCOc1cc(Nc2nccc(Oc3ccc(NC(=O)Nc4cc(C(C)(C)C)cc(NS(C)(=O)=O)c4OC)c4ccccc34)n2)cc(OC)c1` , what value of IC50 is listed for PBMCs?
OUT: 0.7 nM

----------
Each item that follows carries a reported inhibition at 5 µg/mL.
Test system: PBMCs
Test: Cell mitosis assay in PBMCs
Assay type: cell-based
Conditions: Homo sapiens, PBMC, 5 μg/mL
Supply the numeric figure in %, leaving out any unit text.

Worked examples, 2 molecules total:
- CNC(=O)c1cc(C(C)(C)C)cc(NC(=O)Nc2ccc(Oc3ccnc(Nc4cc(CO)cc(OC)c4)c3)c3ccccc23)c1OC: 87
- COCCOCCOCCOc1cc(Nc2nccc(Oc3ccc(NC(=O)Nc4cc(C(C)(C)C)cc(NS(C)(=O)=O)c4OC)c(Cl)c3Cl)n2)cc(OC)c1: 70.2

Now turn to the next molecule.
IN: Name the recorded inhibition at 5 µg/mL for `COCCOCCOCCOCCOCCOCCOCCOc1cc(Nc2cc(Oc3ccc(NC(=O)Nc4cc(C(C)(C)C)cc(NS(C)(=O)=O)c4OC)c4ccccc34)ccn2)cc(OC)c1` .
OUT: 45

----------
Tested on: PBMCs
Assay: Cell mitosis assay in PBMCs
Format: cell-based
Settings: Homo sapiens, PBMC, 5 μg/mL
Metric: inhibition at 5 µg/mL (%)
Supply the numeric figure in %, leaving out any unit text.

Worked examples, 4 compounds total:
• COCCOCCOCCOc1cc(Nc2cc(Oc3ccc(NC(=O)Nc4cc(C(C)(C)C)cc(C(=O)NCCN(C)C)c4OC)c4ccccc34)ccn2)cc(OC)c1 = 91.3
• COc1cc(Nc2cc(Oc3ccc(NC(=O)Nc4cc(C(C)(C)C)cc(NS(C)(=O)=O)c4OC)c4ccccc34)ccn2)cc(C(=O)NCCN2C[C@@H](C)O[C@@H](C)C2)c1 = 26.6
• COc1cccc(Nc2cc(Oc3ccc(NC(=O)Nc4cc(C(C)(C)C)cc(C(=O)NC5COC5)c4OC)c4ccccc34)ccn2)c1 = 58.1
• CNC(=O)c1cc(C(C)(C)C)cc(NC(=O)Nc2ccc(Oc3ccnc(Nc4cc(OC)cc(OCCOCCOCCOC)c4)c3)c3ccccc23)c1OC = 34.6

Now turn to the next compound.
IN: Name the recorded inhibition at 5 µg/mL for `C#Cc1cc(Nc2nccc(Oc3ccc(NC(=O)Nc4cc(C(C)(C)C)cc(NS(C)(=O)=O)c4OC)c4ccccc34)n2)cc(C(=O)NCCOCCOCCOC)c1` .
OUT: 20.5
